Test system: HeLa
methodNotes: Proliferation assay (crystal violet), HeLa
Type: cell-based
cond: Homo sapiens, HeLa, 96 h, HeLa cells; 4 days incubation; crystal violet staining; read-out: IC50 inhibition of proliferation, HeLa
pIC50: −log10 of the molar value.
quantityMeasured: pIC50

>>> testresult("Cc1nsc(Nc2cnc(C(F)(F)F)cn2)c1C(=O)Nc1ccc(O[C@@H]2CCN(CCC(F)(F)F)C[C@H]2F)nc1 [Example 368]")
6.46
>>> testresult("COCCN1CCN(C(=O)c2cccc(NC(=O)c3c(C)nsc3Nc3cnc4ccccc4n3)c2)CC1 [Example 91]")
5.00
>>> testresult("Cc1nsc(Nc2ccc(C#N)cn2)c1C(=O)Nc1ccc(Nc2ccc(F)c(F)c2)nc1 [Example 433]")
5.27
>>> testresult("CCCN1CC[C@H](Oc2ccc(NC(=O)c3c(C)nsc3Nc3cnc(C(F)(F)F)cn3)cn2)[C@H](F)C1 [Example 147]")
6.49
>>> testresult("Cc1nsc(Nc2cnc(C(F)(F)F)cn2)c1C(=O)Nc1ccc(OCC2CCN(CCC(F)(F)F)CC2)nc1 [Example 347]")
6.41
>>> testresult("Cc1nsc(Nc2cnc3ccccc3n2)c1C(=O)Nc1cccc(NC(=O)C(C)(C)C)c1 [Example 186]")
5.19
